Molecular target: Neuronal acetylcholine receptor subunit alpha-7 (Rattus norvegicus)
Sequence (Q05941 whole entry): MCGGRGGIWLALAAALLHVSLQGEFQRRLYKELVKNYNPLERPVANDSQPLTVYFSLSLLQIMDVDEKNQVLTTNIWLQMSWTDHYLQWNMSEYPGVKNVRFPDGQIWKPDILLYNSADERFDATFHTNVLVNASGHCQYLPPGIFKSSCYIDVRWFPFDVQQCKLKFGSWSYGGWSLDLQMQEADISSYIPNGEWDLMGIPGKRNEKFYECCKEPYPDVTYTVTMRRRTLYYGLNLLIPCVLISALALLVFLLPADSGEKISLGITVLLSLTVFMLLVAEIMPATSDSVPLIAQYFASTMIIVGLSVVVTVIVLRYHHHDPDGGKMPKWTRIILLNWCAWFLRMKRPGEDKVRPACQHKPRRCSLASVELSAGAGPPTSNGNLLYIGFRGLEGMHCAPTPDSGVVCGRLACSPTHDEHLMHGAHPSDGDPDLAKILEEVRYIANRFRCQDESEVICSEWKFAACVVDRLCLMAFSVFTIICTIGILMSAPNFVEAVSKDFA
Assay: Displacement of [125I]alpha-bungarotoxin from alpha7 nicotinic acetylcholine receptor in rat brain cortex membrane homogenates
measurementName: Ki (µM)
Give just the number in µM; leave the unit off.

Could you share which Ki value was measured for CC(=O)CCN1C[C@@H]2C[C@H](C1)c1cccc(=O)n1C2 ?
1.24

New cases:
Could you share which Ki value was measured for O=c1cccc2n1C[C@H]1C[C@@H]2CN(CCc2ccccc2)C1 ?
25

Could you share which Ki value was measured for O=C(CCN1C[C@@H]2C[C@H](C1)c1cccc(=O)n1C2)c1ccc(F)cc1 ?
0.433

* * *

Measured Ki values are reported for all entries that follow.
Molecular target: Neuronal acetylcholine receptor; alpha4/beta2 (Rattus norvegicus, UniProt P09483+P12390)
Sequence (P09483 whole entry): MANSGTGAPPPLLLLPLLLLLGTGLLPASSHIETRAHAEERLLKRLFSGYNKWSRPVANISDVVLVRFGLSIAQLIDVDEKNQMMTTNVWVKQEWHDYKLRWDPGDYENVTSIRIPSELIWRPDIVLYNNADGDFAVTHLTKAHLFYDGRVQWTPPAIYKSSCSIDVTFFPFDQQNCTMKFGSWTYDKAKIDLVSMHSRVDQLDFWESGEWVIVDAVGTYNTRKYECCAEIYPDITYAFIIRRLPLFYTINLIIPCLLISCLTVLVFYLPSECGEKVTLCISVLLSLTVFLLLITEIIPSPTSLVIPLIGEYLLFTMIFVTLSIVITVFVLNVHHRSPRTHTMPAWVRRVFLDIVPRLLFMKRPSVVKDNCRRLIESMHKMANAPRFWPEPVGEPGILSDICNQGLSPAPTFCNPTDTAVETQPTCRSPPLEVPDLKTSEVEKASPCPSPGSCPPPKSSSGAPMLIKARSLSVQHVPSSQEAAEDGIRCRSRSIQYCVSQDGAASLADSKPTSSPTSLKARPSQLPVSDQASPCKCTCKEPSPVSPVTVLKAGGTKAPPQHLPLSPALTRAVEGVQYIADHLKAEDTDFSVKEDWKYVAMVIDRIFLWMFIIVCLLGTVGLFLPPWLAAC
Sequence (P12390 whole entry): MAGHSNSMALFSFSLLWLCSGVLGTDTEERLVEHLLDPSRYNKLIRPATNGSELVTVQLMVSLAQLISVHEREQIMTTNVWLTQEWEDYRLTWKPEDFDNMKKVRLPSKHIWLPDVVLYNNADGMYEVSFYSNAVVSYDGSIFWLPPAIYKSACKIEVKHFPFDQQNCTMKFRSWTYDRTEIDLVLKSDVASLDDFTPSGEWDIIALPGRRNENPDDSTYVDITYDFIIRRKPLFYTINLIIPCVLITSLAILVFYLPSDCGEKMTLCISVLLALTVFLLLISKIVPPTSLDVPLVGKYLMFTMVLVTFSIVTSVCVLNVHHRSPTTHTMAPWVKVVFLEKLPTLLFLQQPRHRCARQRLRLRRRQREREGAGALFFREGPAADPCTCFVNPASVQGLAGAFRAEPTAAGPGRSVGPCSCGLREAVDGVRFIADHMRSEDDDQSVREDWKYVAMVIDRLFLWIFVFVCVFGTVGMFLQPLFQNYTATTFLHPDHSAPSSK
Assay: Displacement of [3H]cytisine from alpha4beta2 nicotinic acetylcholine receptor in rat brain cortex membrane homogenates
Type: cell membranes
Give just the number in nM; leave the unit off.

Below, each entry is followed by its recorded Ki result.
Query for Neuronal acetylcholine receptor; alpha4/beta2 (Rattus norvegicus, UniProt P09483+P12390): what Ki does the record show for O=c1cccc2n1C[C@H]1C[C@@H]2CN(Cc2ccccc2)C1 ?
1000

Query for Neuronal acetylcholine receptor; alpha4/beta2 (Rattus norvegicus, UniProt P09483+P12390): what Ki does the record show for CC(=O)CCN1C[C@@H]2C[C@H](C1)c1cccc(=O)n1C2 ?
3.2

Query for Neuronal acetylcholine receptor; alpha4/beta2 (Rattus norvegicus, UniProt P09483+P12390): what Ki does the record show for CCCCCN1C[C@@H]2C[C@H](C1)c1cccc(=O)n1C2 ?
43.5

Query for Neuronal acetylcholine receptor; alpha4/beta2 (Rattus norvegicus, UniProt P09483+P12390): what Ki does the record show for O=C(CCN1C[C@@H]2C[C@H](C1)c1cccc(=O)n1C2)c1ccccc1 ?
7.2

Query for Neuronal acetylcholine receptor; alpha4/beta2 (Rattus norvegicus, UniProt P09483+P12390): what Ki does the record show for O=C(CN1C[C@@H]2C[C@H](C1)c1cccc(=O)n1C2)c1ccc(F)cc1 ?
172

New cases:
Query for Neuronal acetylcholine receptor; alpha4/beta2 (Rattus norvegicus, UniProt P09483+P12390): what Ki does the record show for O=c1cccc2n1C[C@H]1C[C@@H]2CN(CCCCc2ccccc2)C1 ?
2220

Query for Neuronal acetylcholine receptor; alpha4/beta2 (Rattus norvegicus, UniProt P09483+P12390): what Ki does the record show for O=C(CCN1C[C@@H]2C[C@H](C1)c1cccc(=O)n1C2)c1ccc(F)cc1 ?
13

Query for Neuronal acetylcholine receptor; alpha4/beta2 (Rattus norvegicus, UniProt P09483+P12390): what Ki does the record show for O=c1cccc2n1C[C@H]1C[C@@H]2CN(Cc2ccc(F)cc2)C1 ?
183

Query for Neuronal acetylcholine receptor; alpha4/beta2 (Rattus norvegicus, UniProt P09483+P12390): what Ki does the record show for O=C(CCCN1C[C@@H]2C[C@H](C1)c1cccc(=O)n1C2)c1ccc(F)cc1 ?
670

Query for Neuronal acetylcholine receptor; alpha4/beta2 (Rattus norvegicus, UniProt P09483+P12390): what Ki does the record show for O=c1cccc2n1C[C@H]1C[C@@H]2CN(CCCc2ccccc2)C1 ?
42
